# target-under-test: 5-HT2A receptor (Homo sapiens (Human))
# Sequence (P28223 whole entry): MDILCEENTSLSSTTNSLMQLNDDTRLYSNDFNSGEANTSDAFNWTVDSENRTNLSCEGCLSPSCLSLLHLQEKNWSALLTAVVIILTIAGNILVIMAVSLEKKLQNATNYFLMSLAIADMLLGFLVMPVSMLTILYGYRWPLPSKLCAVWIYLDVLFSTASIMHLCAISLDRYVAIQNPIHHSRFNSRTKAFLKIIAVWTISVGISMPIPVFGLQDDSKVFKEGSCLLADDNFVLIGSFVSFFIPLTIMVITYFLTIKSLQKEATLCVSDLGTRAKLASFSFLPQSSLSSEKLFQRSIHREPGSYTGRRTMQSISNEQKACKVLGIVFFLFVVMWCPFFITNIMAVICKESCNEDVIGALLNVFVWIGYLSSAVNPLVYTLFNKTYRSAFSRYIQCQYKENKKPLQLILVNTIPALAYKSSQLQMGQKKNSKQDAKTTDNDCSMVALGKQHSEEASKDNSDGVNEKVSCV
# protocol-description: cell-based
# Type: cell-based
# applied-conditions: HEK-293T, read-out: β-arrestin2 signaling agonistic activity (percentage in parentheses)
property-measured: Emax
Answer format reminder: number followed by unit.

Example results:
COc1ccccc1CCCN1CC[C@@H]2[C@H](C1)c1cccc3c1N2CCCS3 [Compound I-27]; 35.7%
COc1ccccc1CCCN1CC[C@@H]2[C@H](C1)c1cccc3c1N2CCC3 (single isomer, unassigned) [Compound I-19]; 59.4%
CN1CCN2c3c(cccc31)[C@@H]1CN(CCc3ccccc3O)CC[C@@H]12 [Compound I-9]; 14.4%
COc1ccccc1CN1CC[C@H]2[C@@H](C1)c1cccc3c1N2CCN3C [Compound I-1]; 60.2%

I am curious: what Emax value has been reported for COc1ccccc1CCCN1CC[C@H]2[C@@H](C1)c1cccc3c1N2CCN3C [Compound I-10] ?
12.7%

I am curious: what Emax value has been reported for COc1ccccc1CCCN1CC[C@@H]2[C@H](C1)c1cccc3c1N2CCCN3C (single isomer, unassigned) [Compound I-15] ?
24.3%

I am curious: what Emax value has been reported for CN1CCN2c3c(cccc31)[C@@H]1CN(CCCc3ccccc3O)CC[C@@H]12 [Compound I-11] ?
36.8%

I am curious: what Emax value has been reported for COc1ccccc1CCN1CC[C@@H]2[C@H](C1)c1cccc3c1N2CCCN3C (single isomer, unassigned) [Compound I-13] ?
51.4%

====

Quick reference: pKi of the listed items.
# target-under-test: dopamine D2 receptor (Homo sapiens (Human))
# Sequence (P14416 whole entry, species assumed): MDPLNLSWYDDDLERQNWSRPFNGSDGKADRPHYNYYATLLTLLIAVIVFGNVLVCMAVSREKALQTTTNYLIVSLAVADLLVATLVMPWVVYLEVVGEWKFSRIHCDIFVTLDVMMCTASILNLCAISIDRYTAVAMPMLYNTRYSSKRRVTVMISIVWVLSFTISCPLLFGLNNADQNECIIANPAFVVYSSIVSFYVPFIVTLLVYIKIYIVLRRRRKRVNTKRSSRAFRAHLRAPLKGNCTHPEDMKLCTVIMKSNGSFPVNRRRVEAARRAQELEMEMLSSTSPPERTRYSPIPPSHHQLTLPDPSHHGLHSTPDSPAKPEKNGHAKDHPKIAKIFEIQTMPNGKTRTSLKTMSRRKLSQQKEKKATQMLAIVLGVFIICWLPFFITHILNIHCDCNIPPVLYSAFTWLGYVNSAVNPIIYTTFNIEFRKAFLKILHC
# protocol-description: radioligand competitive binding assay, [3H]-Methylspiperone, 293T membranes
# applied-conditions: affinity for the dopamine D2 receptor
Reminder that pKi is minus the log10 of a molar concentration.

COc1ccccc1CCCN1CC[C@H]2[C@@H](C1)c1cccc3c1N2CCN3C; 5.73

I am curious: what pKi value has been reported for COc1ccccc1CCN1CC[C@H]2[C@@H](C1)c1cccc3c1N2CCN3C ?
5.81

====

# protocol-description: in vivo
# applied-conditions: male, C57, mouse, ip, 5 mg/kg, MRT
property-measured: MRT
Answer format reminder: number followed by unit.

I am curious: what MRT value has been reported for COc1ccccc1CCCN1CC[C@@H]2[C@H](C1)c1cccc3c1N2CCO3 (single isomer, unassigned) ?
1.47 h

====

# protocol-description: in vivo
# applied-conditions: male, C57, mouse, ip, 5 mg/kg
property-measured: AUC0-t (ng·h/mL)
Write it as a number; the unit ng·h/mL goes unstated.

I am curious: what AUC0-t value has been reported for COc1ccccc1CCCN1CC[C@@H]2[C@H](C1)c1cccc3c1N2CCO3 (single isomer, unassigned) ?
537

====

# target-under-test: 5-HT2A receptor (Homo sapiens (Human))
# protocol-description: cell-based
# Format: cell-based
# applied-conditions: value in parentheses
property-measured: Gq signaling agonistic activity (percentage in parentheses) (%)
Write it as a number; the unit % goes unstated.

Example results:
COc1ccccc1CN1CC[C@H]2[C@@H](C1)c1cccc3c1N2CCN3C; 67.0
CN1CCN2c3c(cccc31)[C@@H]1CN(Cc3ccccc3O)CC[C@@H]12; 65.3
CN1CCN2c3c(cccc31)[C@@H]1CN(CCCc3ccccc3O)CC[C@@H]12; 9.7

I am curious: what Gq signaling agonistic activity (percentage in parentheses) value has been reported for COc1ccccc1CCN1CC[C@H]2[C@@H](C1)c1cccc3c1N2CCN3C ?
20.2

I am curious: what Gq signaling agonistic activity (percentage in parentheses) value has been reported for COc1cccc(CCN2CC[C@H]3[C@@H](C2)c2cccc4c2N3CCN4C)c1 ?
13.7
